target-of-assay: Human autotaxin enzyme (Homo sapiens, UniProt Q13822)
Construct: purchased R&D System
measurement-notes: Evaluation of autotaxin inhibitor, Method B (Test Example 2): TG-mTMP fluorescence
Assay type: biochemical
measurement-setup: Assay Method: Method B (Test Example 2); read-out: Inhibitory Activity (Enzyme Inhibitory Activity, IC50)
pIC50: −log10 of the molar value.
measure: pIC50

compound	target-of-assay	result-value
Cc1ccc(Cn2c(C)cc(=O)n3cc(-c4ccc(Cl)cc4)nc23)cc1	Human autotaxin enzyme (Homo sapiens, UniProt Q13822)	7.00 to 8.00
Cc1cc(=O)n2cc(-c3ccc(Cl)cc3)nc2n1CCC(F)(F)F	Human autotaxin enzyme (Homo sapiens, UniProt Q13822)	6.00 to 7.00
Cc1cc(=O)n2cc(-c3ccc(Cl)cc3)nc2n1CC(=O)OC(C)C	Human autotaxin enzyme (Homo sapiens, UniProt Q13822)	7.00 to 8.00
Cc1cc(=O)n2cc(-c3ccc(Cl)cc3)nc2n1Cc1ccccc1	Human autotaxin enzyme (Homo sapiens, UniProt Q13822)	7.00 to 8.00
Cc1cc(=O)n2cc(-c3ccc(Cl)cc3)nc2n1C(C)C(=O)OC(C)(C)C (centres unmarked)	Human autotaxin enzyme (Homo sapiens, UniProt Q13822)	6.00 to 7.00
CCC(=O)C(C)n1c(C)cc(=O)n2cc(-c3ccc(Cl)cc3)nc12 (centres unmarked)	Human autotaxin enzyme (Homo sapiens, UniProt Q13822)	7.00 to 8.00
Cc1cc(=O)n2cc(-c3ccc(Cl)cc3)nc2n1CC(=O)NC(C)C	Human autotaxin enzyme (Homo sapiens, UniProt Q13822)	< 6.00
Cc1cc(=O)n2cc(-c3ccc(Cl)cc3)nc2n1CC(C)C	Human autotaxin enzyme (Homo sapiens, UniProt Q13822)	7.00 to 8.00
Cc1cc(=O)n2cc(-c3ccc(Cl)cc3)nc2n1CC1CCC1	Human autotaxin enzyme (Homo sapiens, UniProt Q13822)	7.00 to 8.00
CCOC(=O)c1ccc(Cn2c(C)cc(=O)n3cc(-c4ccc(Cl)cc4)nc23)cc1	Human autotaxin enzyme (Homo sapiens, UniProt Q13822)	6.00 to 7.00
CCCC(O)Cn1c(C)cc(=O)n2cc(-c3ccc(Cl)cc3)nc12 (centres unmarked)	Human autotaxin enzyme (Homo sapiens, UniProt Q13822)	7.00 to 8.00
Cc1cc(=O)n2cc(-c3ccc(Cl)cc3)nc2n1Cc1ccc(OCCN2CCCC2)cc1	Human autotaxin enzyme (Homo sapiens, UniProt Q13822)	> 8.00
CCCCCn1c(C)cc(=O)n2cc(-c3ccc(Br)cc3)nc12	Human autotaxin enzyme (Homo sapiens, UniProt Q13822)	> 8.00
Cc1cc(=O)n2cc(-c3ccc(Cl)cc3)nc2n1CCc1ccccc1	Human autotaxin enzyme (Homo sapiens, UniProt Q13822)	7.00 to 8.00
Cc1cc(=O)n2cc(-c3ccc(Cl)cc3)nc2n1CC1CC1	Human autotaxin enzyme (Homo sapiens, UniProt Q13822)	7.00 to 8.00
Cc1cc(=O)n2cc(-c3ccc(Cl)cc3)nc2n1C1CCC1	Human autotaxin enzyme (Homo sapiens, UniProt Q13822)	7.00 to 8.00
Cc1cc(=O)n2cc(-c3ccc(Cl)cc3)nc2n1CC1CCCC1	Human autotaxin enzyme (Homo sapiens, UniProt Q13822)	7.00 to 8.00
Cc1cc(=O)n2cc(-c3ccc(Cl)cc3)nc2n1CCOC(C)C	Human autotaxin enzyme (Homo sapiens, UniProt Q13822)	6.00 to 7.00
Cc1cccc(Cn2c(C)cc(=O)n3cc(-c4ccc(Cl)cc4)nc23)c1	Human autotaxin enzyme (Homo sapiens, UniProt Q13822)	6.00 to 7.00
Cc1cc(=O)n2cc(-c3ccc(Cl)cc3)nc2n1CCCCCO	Human autotaxin enzyme (Homo sapiens, UniProt Q13822)	6.00 to 7.00
Cc1cc(=O)n2cc(-c3ccc(Cl)cc3)nc2n1CCCC(C)C	Human autotaxin enzyme (Homo sapiens, UniProt Q13822)	> 8.00
CCC(=O)Cn1c(C)cc(=O)n2cc(-c3ccc(Cl)cc3)nc12	Human autotaxin enzyme (Homo sapiens, UniProt Q13822)	7.00 to 8.00
C=CCCCn1c(C)cc(=O)n2cc(-c3ccc(Cl)cc3)nc12	Human autotaxin enzyme (Homo sapiens, UniProt Q13822)	7.00 to 8.00

====

target-of-assay: Human autotaxin enzyme (Homo sapiens)
Construct: purchased R&D System
measurement-notes: Evaluation of autotaxin inhibitor, Method C (Test Example 3): 18:0 Lyso PC, choline assay, Resorufin fluorescence
Assay type: biochemical
measurement-setup: Assay Method C (Test Example 3), human autotaxin, 18:0 Lyso PC substrate; read-out: Inhibitory Activity (autotaxin enzyme inhibitory activity, IC50 class)
In this section we review reported IC50 values for a set of compounds.
measure: IC50

compound	measure	result-value
CCCCCn1c(N2CCC3(CC2)COC3)cc(=O)n2cc(-c3ccc(Cl)cc3)nc12 [Compound 716]	IC50	100 to 1000 nM
O=C(O)CNC(=O)[C@@H]1CCCN1c1cc(=O)n2cc(-c3ccc(Cl)cc3)nc2n1Cc1ccccc1 [Compound 744]	IC50	10 to 100 nM
N#CCCCCn1c(-c2ccc(C(=O)NCCN3CCOCC3)cc2)cc(=O)n2cc(-c3ccc(C(F)(F)F)cc3)nc12 [Compound 376]	IC50	10 to 100 nM
CCn1c(N2CCC[C@H]2C(=O)N[C@@H](C)C(=O)O)cc(=O)n2cc(-c3ccc(Cl)cc3)nc12 [Compound 760]	IC50	10 to 100 nM
CCCCCn1c(N2CCC[C@H]2C(=O)NCCCN2CCN(C)CC2)cc(=O)n2cc(-c3ccc(Cl)cc3)nc12 [Compound 649]	IC50	10 to 100 nM
CCCCCn1c(N2CCC[C@H]2C(=O)N2CCO[C@H](C(=O)O)C2)cc(=O)n2cc(-c3ccc(Cl)cc3)nc12 [Compound 680]	IC50	10 to 100 nM
